Settings: in water, 318.15 K
reported_property: solubility (mole fraction)
Lab note: jot down the number only; don't add units.

Query: May I ask what solubility (mole fraction) has been recorded for O=C(O)/C=C/c1ccc(Cl)cc1 ?
Response: 1.74e-05

----------
Conditions: in isobutanol, 308.15 K
reported_property: solubility (mole fraction)
Lab note: jot down the number only; don't add units.

Query: May I ask what solubility (mole fraction) has been recorded for O=C(O)/C=C/c1ccc(Cl)cc1 ?
Response: 0.00223

----------
Details: in n-propanol, 303.15 K
reported_property: solubility (mole fraction)
Lab note: jot down the number only; don't add units.

Query: May I ask what solubility (mole fraction) has been recorded for O=C(O)/C=C/c1ccc(Cl)cc1 ?
Response: 0.00234

----------
Settings: in acetone, 323.15 K
reported_property: solubility (mole fraction)

Query: May I ask what solubility (mole fraction) has been recorded for O=C(O)/C=C/c1ccc(Cl)cc1 ?
Response: 0.00654

----------
Settings: in n-propanol, 293.15 K
reported_property: solubility (mole fraction)
Lab note: jot down the number only; don't add units.

Query: May I ask what solubility (mole fraction) has been recorded for O=C(O)/C=C/c1ccc(Cl)cc1 ?
Response: 0.00177

----------
Conditions: in ethanol, 283.15 K
reported_property: solubility (mole fraction)
Lab note: jot down the number only; don't add units.

Query: May I ask what solubility (mole fraction) has been recorded for O=C(O)/C=C/c1ccc(Cl)cc1 ?
Response: 0.00136

----------
Details: in methyl acetate, 308.15 K
reported_property: solubility (mole fraction)
Lab note: jot down the number only; don't add units.

Query: May I ask what solubility (mole fraction) has been recorded for O=C(O)/C=C/c1ccc(Cl)cc1 ?
Response: 0.00298

----------
Conditions: in acetonitrile, 303.15 K
reported_property: solubility (mole fraction)
Lab note: jot down the number only; don't add units.

Query: May I ask what solubility (mole fraction) has been recorded for O=C(O)/C=C/c1ccc(Cl)cc1 ?
Response: 0.000468

----------
Conditions: in ethanol, 303.15 K
reported_property: solubility (mole fraction)
Lab note: jot down the number only; don't add units.

Query: May I ask what solubility (mole fraction) has been recorded for O=C(O)/C=C/c1ccc(Cl)cc1 ?
Response: 0.00238

----------
Details: in methanol, 323.15 K
reported_property: solubility (mole fraction)
Lab note: jot down the number only; don't add units.

Query: May I ask what solubility (mole fraction) has been recorded for O=C(O)/C=C/c1ccc(Cl)cc1 ?
Response: 0.00251

----------
Settings: in isobutanol, 298.15 K
reported_property: solubility (mole fraction)
Lab note: jot down the number only; don't add units.

Query: May I ask what solubility (mole fraction) has been recorded for O=C(O)/C=C/c1ccc(Cl)cc1 ?
Response: 0.00177

----------
Conditions: in water, 283.15 K
reported_property: solubility (mole fraction)
Lab note: jot down the number only; don't add units.

Query: May I ask what solubility (mole fraction) has been recorded for O=C(O)/C=C/c1ccc(Cl)cc1 ?
Response: 5.3e-06

----------
Conditions: in ethyl acetate, 303.15 K
reported_property: solubility (mole fraction)
Lab note: jot down the number only; don't add units.

Query: May I ask what solubility (mole fraction) has been recorded for O=C(O)/C=C/c1ccc(Cl)cc1 ?
Response: 0.00242

----------
Conditions: in acetonitrile, 318.15 K
reported_property: solubility (mole fraction)
Lab note: jot down the number only; don't add units.

Query: May I ask what solubility (mole fraction) has been recorded for O=C(O)/C=C/c1ccc(Cl)cc1 ?
Response: 0.000803

----------
Settings: in methanol, 293.15 K
reported_property: solubility (mole fraction)
Lab note: jot down the number only; don't add units.

Query: May I ask what solubility (mole fraction) has been recorded for O=C(O)/C=C/c1ccc(Cl)cc1 ?
Response: 0.00136

----------
Settings: in n-propanol, 318.15 K
reported_property: solubility (mole fraction)
Lab note: jot down the number only; don't add units.

Query: May I ask what solubility (mole fraction) has been recorded for O=C(O)/C=C/c1ccc(Cl)cc1 ?
Response: 0.00361

----------
Settings: in acetonitrile, 283.15 K
reported_property: solubility (mole fraction)
Lab note: jot down the number only; don't add units.

Query: May I ask what solubility (mole fraction) has been recorded for O=C(O)/C=C/c1ccc(Cl)cc1 ?
Response: 0.000318

----------
Settings: in 1,4-dioxane, 288.15 K
reported_property: solubility (mole fraction)
Lab note: jot down the number only; don't add units.

Query: May I ask what solubility (mole fraction) has been recorded for O=C(O)/C=C/c1ccc(Cl)cc1 ?
Response: 0.00826

----------
Details: in n-propanol, 313.15 K
reported_property: solubility (mole fraction)
Lab note: jot down the number only; don't add units.

Query: May I ask what solubility (mole fraction) has been recorded for O=C(O)/C=C/c1ccc(Cl)cc1 ?
Response: 0.00308

----------
Conditions: in ethyl acetate, 318.15 K
reported_property: solubility (mole fraction)
Lab note: jot down the number only; don't add units.

Query: May I ask what solubility (mole fraction) has been recorded for O=C(O)/C=C/c1ccc(Cl)cc1 ?
Response: 0.00379

----------
Details: in ethyl acetate, 308.15 K
reported_property: solubility (mole fraction)
Lab note: jot down the number only; don't add units.

Query: May I ask what solubility (mole fraction) has been recorded for O=C(O)/C=C/c1ccc(Cl)cc1 ?
Response: 0.00266

----------
Settings: in acetone, 293.15 K
reported_property: solubility (mole fraction)

Query: May I ask what solubility (mole fraction) has been recorded for O=C(O)/C=C/c1ccc(Cl)cc1 ?
Response: 0.00303

----------
Conditions: in ethyl acetate, 293.15 K
reported_property: solubility (mole fraction)
Lab note: jot down the number only; don't add units.

Query: May I ask what solubility (mole fraction) has been recorded for O=C(O)/C=C/c1ccc(Cl)cc1 ?
Response: 0.0019

----------
Details: in ethanol, 308.15 K
reported_property: solubility (mole fraction)
Lab note: jot down the number only; don't add units.

Query: May I ask what solubility (mole fraction) has been recorded for O=C(O)/C=C/c1ccc(Cl)cc1 ?
Response: 0.00265

----------
Details: in methanol, 313.15 K
reported_property: solubility (mole fraction)

Query: May I ask what solubility (mole fraction) has been recorded for O=C(O)/C=C/c1ccc(Cl)cc1 ?
Response: 0.00206

----------
Details: in methyl acetate, 298.15 K
reported_property: solubility (mole fraction)
Lab note: jot down the number only; don't add units.

Query: May I ask what solubility (mole fraction) has been recorded for O=C(O)/C=C/c1ccc(Cl)cc1 ?
Response: 0.00231

----------
Settings: in isobutanol, 293.15 K
reported_property: solubility (mole fraction)

Query: May I ask what solubility (mole fraction) has been recorded for O=C(O)/C=C/c1ccc(Cl)cc1 ?
Response: 0.00154

----------
Conditions: in isobutanol, 288.15 K
reported_property: solubility (mole fraction)
Lab note: jot down the number only; don't add units.

Query: May I ask what solubility (mole fraction) has been recorded for O=C(O)/C=C/c1ccc(Cl)cc1 ?
Response: 0.00125

----------
Settings: in water, 298.15 K
reported_property: solubility (mole fraction)
Lab note: jot down the number only; don't add units.

Query: May I ask what solubility (mole fraction) has been recorded for O=C(O)/C=C/c1ccc(Cl)cc1 ?
Response: 9.38e-06

----------
Conditions: in acetonitrile, 293.15 K
reported_property: solubility (mole fraction)
Lab note: jot down the number only; don't add units.

Query: May I ask what solubility (mole fraction) has been recorded for O=C(O)/C=C/c1ccc(Cl)cc1 ?
Response: 0.000365

----------
Settings: in methanol, 283.15 K
reported_property: solubility (mole fraction)
Lab note: jot down the number only; don't add units.

Query: May I ask what solubility (mole fraction) has been recorded for O=C(O)/C=C/c1ccc(Cl)cc1 ?
Response: 0.00112

----------
Details: in n-butanol, 323.15 K
reported_property: solubility (mole fraction)
Lab note: jot down the number only; don't add units.

Query: May I ask what solubility (mole fraction) has been recorded for O=C(O)/C=C/c1ccc(Cl)cc1 ?
Response: 0.00427

----------
Conditions: in ethanol, 318.15 K
reported_property: solubility (mole fraction)
Lab note: jot down the number only; don't add units.

Query: May I ask what solubility (mole fraction) has been recorded for O=C(O)/C=C/c1ccc(Cl)cc1 ?
Response: 0.00363

----------
Conditions: in acetonitrile, 323.15 K
reported_property: solubility (mole fraction)
Lab note: jot down the number only; don't add units.

Query: May I ask what solubility (mole fraction) has been recorded for O=C(O)/C=C/c1ccc(Cl)cc1 ?
Response: 0.00105

----------
Conditions: in isopropanol, 323.15 K
reported_property: solubility (mole fraction)
Lab note: jot down the number only; don't add units.

Query: May I ask what solubility (mole fraction) has been recorded for O=C(O)/C=C/c1ccc(Cl)cc1 ?
Response: 0.00454

----------
Settings: in 1,4-dioxane, 313.15 K
reported_property: solubility (mole fraction)
Lab note: jot down the number only; don't add units.

Query: May I ask what solubility (mole fraction) has been recorded for O=C(O)/C=C/c1ccc(Cl)cc1 ?
Response: 0.0148
